biological target: HLA-B*07:02; assay: IEDB peptide-MHC binding, purified MHC/direct/fluorescence; filed as Kd, often an IC50 or EC50 that approximates it; bounds were set here for any values at or beyond the usual limits of such assays; details: source organism: Homo sapiens
MEASURED METRIC: Kd (µM)

P. RPAKSMDSL
Q. EPEPHILLF
Sorting by Kd in descending order, would P or Q appear first? # answer = label of selected item
Q

---

biological target: HLA-A*68:01; assay: IEDB peptide-MHC binding, purified MHC/competitive/radioactivity; filed as Kd, often an IC50 or EC50 that approximates it; bounds were set here for any values at or beyond the usual limits of such assays; conditions: source organism: Dengue virus 3 Sri Lanka/1266/2000
MEASURED METRIC: Kd (nM)
The answer is to be given in nM; state only the numeric part.

Look at this sequence and give its reported Kd. IVSSVNMVSR
9.22

---

target: HLA-B*35:01; test: IEDB peptide-MHC binding, purified MHC/competitive/radioactivity; filed as Kd, often an IC50 or EC50 that approximates it; bounds were set here for any values at or beyond the usual limits of such assays; details: source organism: Dengue virus 3 Singapore/8120/1995
MEASURED METRIC: pKd
Expect pKd as a plain number equal to -log10 of the molar concentration.

Form field: reported pKd of MIAGVLFTF
8.33

---

target: HLA-A*11:01; experiment: IEDB peptide-MHC binding, purified MHC/direct/fluorescence; filed as Kd, often an IC50 or EC50 that approximates it; bounds were set here for any values at or beyond the usual limits of such assays; conditions: source organism: Yellow fever virus 17D
MEASURED METRIC: Kd (nM)
Numeric answer only, unit nM assumed.

# input sequence: VMYNLWKMK ; wanted: its Kd
6.3

---

target: HLA-B*40:01; assay: IEDB peptide-MHC binding, purified MHC/direct/fluorescence; filed as Kd, often an IC50 or EC50 that approximates it; bounds were set here for any values at or beyond the usual limits of such assays; conditions: source organism: Homo sapiens
pKd: −log10 of the molar value.
MEASURED METRIC: pKd

Given the entry RRHWGGNVL , what pKd was observed with HLA-B*40:01?
≤ 4.37

---

biological target: HLA-B*35:01; assay: IEDB peptide-MHC binding, purified MHC/competitive/radioactivity; filed as Kd, often an IC50 or EC50 that approximates it; bounds were set here for any values at or beyond the usual limits of such assays; conditions: source organism: Dengue virus 1 Brazil/97-11/1997
MEASURED METRIC: pKd
# log scale: pKd equals minus log10 of the concentration in mol/L

Bench note: what pKd did HALLATSIF show?
7.77

Continuing:
Param item = IPATLFVWY ; retrieve measured pKd.
8.47

Quick one: pKd for YKVASEGFQY ?
5.41

---

target: HLA-B*27:05; experiment: IEDB peptide-MHC binding, purified MHC/direct/fluorescence; filed as Kd, often an IC50 or EC50 that approximates it; bounds were set here for any values at or beyond the usual limits of such assays; conditions: source organism: Bacillus anthracis
pKd: −log10 of the molar value.
MEASURED METRIC: pKd

I have this sequence here, TVIRFWHAM , and I need its recorded pKd.
≤ 4.70

---

molecular target: HLA-A*02:06; experiment: IEDB peptide-MHC binding, purified MHC/competitive/radioactivity; filed as Kd, often an IC50 or EC50 that approximates it; bounds were set here for any values at or beyond the usual limits of such assays; settings: source organism: Vaccinia virus Copenhagen
MEASURED METRIC: Kd (nM)
Report the value in nM with no unit label.

Name the recorded Kd for ILSCIFAFI .
8.84

---

target: HLA-A*69:01; assay: IEDB peptide-MHC binding, purified MHC/direct/fluorescence; filed as Kd, often an IC50 or EC50 that approximates it; bounds were set here for any values at or beyond the usual limits of such assays; conditions: source organism: Salmonella enterica subsp. enterica serovar Typhimurium
MEASURED METRIC: pKd
Scale: negative log10 of molar concentration, which is what pKd denotes.

Which pKd is listed for ELLSHVGQA ?
7.20

---

Kd values for the sequences below.
target: HLA-B*07:02; assay: IEDB peptide-MHC binding, purified MHC/competitive/radioactivity; filed as Kd, often an IC50 or EC50 that approximates it; bounds were set here for any values at or beyond the usual limits of such assays; conditions: source organism: Dengue virus 1 Brazil/97-11/1997
Give just the number in nM; leave the unit off.

Data request, read-out Kd, for SPPEVERAVL
19.7

As a next step, examine the sequence that follows.
If you can, please state the reported Kd value of KPSGSASSM .
4.88

---

target: HLA-B*15:02; experiment: IEDB peptide-MHC binding, purified MHC/direct/fluorescence; filed as Kd, often an IC50 or EC50 that approximates it; bounds were set here for any values at or beyond the usual limits of such assays; settings: source organism: Ravn virus - Ravn, Kenya, 1987
MEASURED METRIC: Kd (nM)
Value expressed in nM; do not type the unit.

Record request: Kd value, item ALFHKVQSY
38

---

biological target: HLA-A*02:19; test: IEDB peptide-MHC binding, purified MHC/direct/fluorescence; filed as Kd, often an IC50 or EC50 that approximates it; bounds were set here for any values at or beyond the usual limits of such assays; details: source organism: Entamoeba histolytica HM-1:IMSS
MEASURED METRIC: Kd

Tell me the measured Kd of KLMPGSIYV , please.
≤ 1 nM

---

molecular target: HLA-A*30:02; assay: IEDB peptide-MHC binding, purified MHC/competitive/radioactivity; filed as Kd, often an IC50 or EC50 that approximates it; bounds were set here for any values at or beyond the usual limits of such assays; conditions: source organism: Dengue virus 3 Martinique/1243/1999
MEASURED METRIC: pKd
Scale: pKd equals -log10([C]), with [C] in mol/L.

Request - read-out pKd | tested on HLA-A*30:02 | sequence NGVVTKNGGY
4.81

---

target: HLA-B*08:01; test: IEDB peptide-MHC binding, purified MHC/competitive/fluorescence; bounds were set here for any values at or beyond the usual limits of such assays; conditions: source organism: Zaire ebolavirus
Documented IC50 across a set of sequences
Dear colleague, please return just the value in µM, with no unit written.

Name the recorded IC50 for RLMRTNFLI .
58.7

Continue with the sequence presented below.
Find the recorded IC50 belonging to NHKNKFMAI and report it.
15.9

---

biological target: HLA-C*05:01; assay: IEDB peptide-MHC binding, purified MHC/direct/fluorescence; filed as Kd, often an IC50 or EC50 that approximates it; bounds were set here for any values at or beyond the usual limits of such assays; conditions: source organism: Escherichia coli O139:H28 str. E24377A
MEASURED METRIC: pKd
The read-out pKd is expressed as -log10 of concentration in moles per litre.

Look up pKd with HLA-C*05:01 for this sequence: YALATQVEF
5.58

---

molecular target: HLA-B*15:01; assay: IEDB peptide-MHC binding, purified MHC/direct/fluorescence; filed as Kd, often an IC50 or EC50 that approximates it; bounds were set here for any values at or beyond the usual limits of such assays; settings: source organism: Brucella abortus
MEASURED METRIC: Kd

Given the entry EKPPVRPIF , report its measured Kd.
≥ 20 µM

---

Measured Kd values are reported for all entries that follow.
target: HLA-A*02:11; assay: IEDB peptide-MHC binding, purified MHC/direct/fluorescence; filed as Kd, often an IC50 or EC50 that approximates it; bounds were set here for any values at or beyond the usual limits of such assays; settings: source organism: Zaire ebolavirus

Which measured Kd belongs to KCNPNLHYW , tested on HLA-A*02:11?
≥ 20 µM

From here, focus on the item given below.
Recall the recorded Kd for KTNDFAPAW with HLA-A*02:11 and state it.
≥ 20 µM

---

biological target: HLA-A*26:01; test: IEDB peptide-MHC binding, purified MHC/direct/fluorescence; filed as Kd, often an IC50 or EC50 that approximates it; bounds were set here for any values at or beyond the usual limits of such assays; conditions: source organism: Pseudomonas aeruginosa UCBPP-PA14
pKd: −log10 of the molar value.
MEASURED METRIC: pKd

Request body: readout pKd, system HLA-A*26:01, query GLGGDASAY . Return the value.
≤ 4.70

---

target: HLA-A*68:02; experiment: IEDB peptide-MHC binding, purified MHC/direct/fluorescence; filed as Kd, often an IC50 or EC50 that approximates it; bounds were set here for any values at or beyond the usual limits of such assays; conditions: source organism: Limestone Canyon virus
pKd: −log10 of the molar value.
MEASURED METRIC: pKd

// lookup pKd for ATKDSFQSF
≤ 4.70

---

molecular target: HLA-B*40:02; assay: IEDB peptide-MHC binding, purified MHC/competitive/radioactivity; filed as Kd, often an IC50 or EC50 that approximates it; bounds were set here for any values at or beyond the usual limits of such assays; details: source organism: Mammarenavirus machupoense
MEASURED METRIC: Kd (nM)
Respond with the bare value in nM.

Worked cases, Kd given:
Bench note: what Kd did RECYAQRFYL show?
5.55

Using the record for CEEGKLCYLT , report its Kd.
8090

Field: next sequence
Any idea what Kd was measured for KEKAPDVGVL ?
64.9
